- Test system: SK-MEL-5 melanoma
- measurement-description: NCI-60 one-dose screen, 48 h (100 = growth as untreated, 0 = no growth, -100 = all killed)
- condition-notes: 10 µM unless noted
Compounds without any hit were thinned out: in the full panel of roughly 83,000, 20% have a hit.
# growth >= 40% gives 1 (yes), anything below gives 0 (no)

{"given-smiles": "Cn1cc(-c2csc(-c3cn(CCN)c4ccc(Br)cc34)n2)c2cccnc21", "assigned-class": "1 (yes)"}
{"given-smiles": "CCN1CCN(C(=O)[C@]23CC[C@@H](C)[C@H](C)[C@H]2C2=CC[C@@H]4[C@@]5(C)C/C(=C/c6cccc(OC)c6OC)C(=O)C(C)(C)[C@@H]5CC[C@@]4(C)[C@]2(C)CC3)CC1", "assigned-class": "1 (yes)"}
{"given-smiles": "CC(C)(C)c1ccc(OCCCCCCCN2CCNCC2)cc1", "assigned-class": "1 (yes)"}
{"given-smiles": "C[C@H]1OC(=O)/C=C/[C@@H](O)[C@@H](O)CCCCCCCC[C@@H]1O", "assigned-class": "1 (yes)"}
{"given-smiles": "COc1ccc(/C(=C\\c2ccc3c(c2)OCO3)C(=O)Nc2nc3ccccc3s2)cc1OC", "assigned-class": "1 (yes)"}
{"given-smiles": "COc1cnc2c(c1)C(=O)c1c-2n(CCCNC(C)C)c(=O)c2cc([N+](=O)[O-])ccc12", "assigned-class": "0 (no)"}
{"given-smiles": "Cc1cc(N(CCCNc2ccnc3cc(Cl)ccc23)Cc2ccco2)nc(N2CCOCC2)n1", "assigned-class": "1 (yes)"}
{"given-smiles": "Cn1cc(-c2csc(-c3c[nH]c4ccccc34)n2)c2cccnc21", "assigned-class": "0 (no)"}
{"given-smiles": "O=S(=O)(NCCNc1cc(-c2cn(-c3ccccc3)nc2-c2cccc(O)c2)ccn1)c1ccc(Cl)cc1", "assigned-class": "0 (no)"}
{"given-smiles": "COc1ccc(/C=C(\\C#N)c2cc3ccccc3n2C(C)=O)cc1", "assigned-class": "1 (yes)"}
{"given-smiles": "C=C1C(=O)O[C@H]2[C@H]1CC/C(Cn1cc(-c3ccc(F)cc3)nn1)=C\\CC[C@@]1(C)O[C@@H]21", "assigned-class": "0 (no)"}

* * *

- System: SF-268 CNS
- measurement-description: NCI-60 one-dose screen, 48 h
- condition-notes: 10 µM unless noted
The panel holds about 83,000 compounds, 20% with a hit somewhere; the sample as a whole holds those more often. Calls of active or inactive are those of the source. Rule for the calls: active = growth percent below 10; inactive = the rest.
Classes used: active, inactive

{"compound": "CCOC(=O)C1OC1(c1ccccc1)c1ccccc1 (centres undefined)", "assigned-class": "inactive"}
{"compound": "Cc1cc(C)nc(NC(N)=NCCc2ccccc2)n1", "assigned-class": "inactive"}
{"compound": "CCCNc1nc(N(C)O)nc(N(C)O)n1", "assigned-class": "inactive"}
{"compound": "O=C(O)c1cccc2c1C(=O)N(c1ccc3c(c1)Cc1ccccc1-3)C2=O", "assigned-class": "inactive"}
{"compound": "O=C(/C=C/c1ccc2ccccc2c1)Nc1ncc(Cc2ccccc2)s1", "assigned-class": "inactive"}
{"compound": "O=C(/C=C\\c1ccc2c(c1)OCO2)/C=C/c1ccc2c(c1)OCO2", "assigned-class": "inactive"}
{"compound": "C=CC(=O)N[C@H](Cc1ccc(-c2cc(Cl)cc(Cl)c2)cc1)[C@H](O)[C@@H](O)C(=O)O", "assigned-class": "inactive"}
{"compound": "CC(C)(C)c1ccc(OCCCCCCCN2CCNCC2)cc1", "assigned-class": "inactive"}
{"compound": "Cc1csc(Nc2nc(-c3ccc(Cl)cc3)nc(C(Cl)(Cl)Cl)n2)n1", "assigned-class": "inactive"}
{"compound": "CCCCC[C@H]1C/C=C2/C(=O)C=C[C@@H]2C/C=C\\CCCC(=O)O[C@@H](CCCCC)C/C=C2/C(=O)C=C[C@@H]2C/C=C\\CCCC(=O)O1", "assigned-class": "active"}
{"compound": "N#CC1c2ccccc2-c2ccccc2N1C(=O)c1ccccc1 (centres undefined)", "assigned-class": "inactive"}
{"compound": "COc1ccc(-c2cc(/C=C/C(=O)c3ccc(OC)c(OC)c3)[nH]n2)cc1", "assigned-class": "active"}
{"compound": "Brc1ccc2c(c1)c(-c1nc(-c3c[nH]c4ncccc34)cs1)cn2CCCN1CCCCC1", "assigned-class": "active"}
{"compound": "Cc1nn(-c2ccc(Cl)cc2)c(=O)n1CCn1cnc2ccccc21", "assigned-class": "inactive"}
{"compound": "C=C(C)[C@@H]1CC[C@]2(C)[C@H](CC=C3[C@@H]4CC(C)(C)CC[C@]4(C=O)CC[C@]32C)[C@@]1(C)CCCN", "assigned-class": "inactive"}
{"compound": "O=C(c1ccccc1)C(CN1CCOCC1)c1ccccc1 (centres undefined)", "assigned-class": "inactive"}
{"compound": "Clc1cc(Cl)cc(Nc2ccc3c(OCCCN4CCOCC4)cccc3n2)c1", "assigned-class": "inactive"}
{"compound": "CCCCC/C(=C\\c1ccccc1)C1OC(C)C(C)O1 (centres undefined)", "assigned-class": "inactive"}
{"compound": "COc1cc(-c2cc3ncccc3c3nc(N)c4cccnc4c23)cc(OC)c1OC", "assigned-class": "inactive"}
{"compound": "Nc1c(C(=O)Nc2c(Cl)cccc2Cl)sc2nc3c(cc12)C(=O)CCC3", "assigned-class": "inactive"}
{"compound": "O=C(NC1=CC(=O)c2ccccc2C1=O)c1ccccc1", "assigned-class": "inactive"}
{"compound": "CC(C)(C)c1nc(-c2ccc(O)c(O)c2)cs1", "assigned-class": "inactive"}
{"compound": "CC(C)c1cc(C(=O)O)c(O)c(C(C)C)c1.CC(C)c1cc(C(=O)O)c(O)c(C(C)C)c1.[Mn]", "assigned-class": "inactive"}
{"compound": "COc1cc2c3c(c4c5ccccc5[nH]c4c2c(OC)c1OC)C(=O)N(O)C3=O", "assigned-class": "inactive"}
{"compound": "Cn1cc(-c2nc(-c3c[nH]c4ncccc34)cs2)c2cc(F)ccc21", "assigned-class": "inactive"}
{"compound": "O=C1/C(=C\\C(Cl)=C/c2ccc([N+](=O)[O-])cc2)SC(=S)N1CCc1ccc(O)cc1", "assigned-class": "active"}
{"compound": "CC[C@]12C=CCN3CC[C@@]4(c5cc([C@H]6CCC(=O)N6)c(OC)cc5N(C)[C@H]4[C@@](O)(C(=O)OC)[C@@H]1OC(C)=O)[C@@H]32", "assigned-class": "inactive"}
{"compound": "N#C/C(=C\\c1ccc(-c2cccc(C(F)(F)F)c2)o1)c1nc(-c2ccco2)cs1", "assigned-class": "inactive"}
{"compound": "C=C1C(=O)O[C@H]2[C@H]1CC/C(COC(=O)NCc1c[nH]c3ccccc13)=C\\CC[C@@]1(C)O[C@@H]21", "assigned-class": "inactive"}

* * *

- Test system: COLO 205 colon
- measurement-description: NCI-60 one-dose screen, 48 h (100 = growth as untreated, 0 = no growth, -100 = all killed)
- condition-notes: 10 µM unless noted
The panel holds about 83,000 compounds, 20% with a hit somewhere; the sample as a whole holds those more often. The source made the active and inactive calls. The calls were made as follows: active = growth percent below 10; inactive = the rest.
Entries annotated with measured growth
reported-property: growth

{"compound": "Cc1cccc(C)c1NCc1nc(-c2ccccc2)n[nH]1", "experimental-result": "106% (inactive)"}
{"compound": "COc1ccc(-c2cc(-c3c(C)oc4cc5occc5c(OC)c4c3=O)nc(N)c2C#N)cc1OC", "experimental-result": "68.1% (inactive)"}
{"compound": "O=S(=O)(NCCNc1cc(-c2cn(-c3ccccc3)nc2-c2cccc(O)c2)ccn1)c1ccc(C(F)(F)F)cc1", "experimental-result": "-21.4% (active)"}
{"compound": "C=C(C)[C@@H]1CC[C@]2(C(=O)O)CC[C@]3(C)[C@H](CC[C@@H]4[C@@]5(C)C/C(=C/c6cccc(I)c6)C(=O)C(C)(C)[C@@H]5CC[C@]43C)[C@@H]12", "experimental-result": "28% (inactive)"}
{"compound": "Cc1cc2nc3c4cc(N)ccc4n(CCN(C)C)c3nc2cc1C", "experimental-result": "-18.5% (active)"}
{"compound": "COc1ccc(C2c3ccccc3NC(=O)N2C2CCN(C)CC2)c(OC)c1 (stereo not given)", "experimental-result": "106% (inactive)"}
{"compound": "C=C(C)[C@@H]1CC[C@]2(C(=O)N3CCN(CC)CC3)CC[C@]3(C)[C@H](CC[C@@H]4[C@@](C)(CCC(=O)N5CCN(CC)CC5)[C@H](C(=C)C)CC[C@]43C)[C@@H]12", "experimental-result": "61.1% (inactive)"}
{"compound": "O=C(/C=C/c1cccc(O)c1)c1ccccc1O", "experimental-result": "104% (inactive)"}
{"compound": "NC(Cc1ccc(O)cc1)C(=O)N/N=C/c1ccccc1O (stereo not given)", "experimental-result": "123% (inactive)"}
{"compound": "COc1cccc(-c2nn(-c3ccccc3)cc2-c2ccnc(NCCCNS(=O)(=O)c3cccc(F)c3)c2)c1", "experimental-result": "11.9% (inactive)"}
{"compound": "CCCC1CCCCN1C(=O)OCC(C)C (stereo not given)", "experimental-result": "99.7% (inactive)"}
{"compound": "Cc1cc2nc3c4cc(O)ccc4n(CCN(C)C)c3nc2cc1C", "experimental-result": "-40.6% (active)"}
{"compound": "COc1ccc2c(c1)c(-c1nc(-c3c[nH]c4ncccc34)cs1)cn2CCNC(=O)OC(C)(C)C", "experimental-result": "84.6% (inactive)"}
{"compound": "Nc1c(C(=O)Nc2cccc(Br)c2)sc2nc3c(cc12)C(=O)CCC3", "experimental-result": "-11.2% (active)"}
{"compound": "COc1cccc(-c2nn(-c3ccccc3)cc2-c2ccnc(NCCCNS(=O)(=O)c3ccc(C(F)(F)F)cc3)c2)c1", "experimental-result": "-1.71% (active)"}
{"compound": "N=C(N)N=Nc1ccc(O)cc1", "experimental-result": "57.2% [100 µM] (inactive)"}
{"compound": "Cc1ccc(Nc2c(C(N)=O)cnc3ccc(S(=O)(=O)Nc4cc(C)on4)cc23)cc1", "experimental-result": "101% (inactive)"}
{"compound": "Cc1ccc2oc(=O)cc(-c3sc(N4CCCCC4)nc3-c3ccccc3)c2c1", "experimental-result": "97.3% (inactive)"}
{"compound": "CC(C)/C=C/CC[C@](C)(O)[C@H]1CC[C@]2(C)[C@@H]1CC[C@@H]1[C@@]3(C)C/C(=C/c4cccc(C(F)(F)F)c4)C(=O)C(C)(C)[C@@H]3CC[C@]12C", "experimental-result": "113% (inactive)"}
{"compound": "COc1ccc(/C=C(\\C#N)c2cc3ccccc3n2S(C)(=O)=O)cc1", "experimental-result": "111% (inactive)"}
{"compound": "O=C1c2ccccc2NC(c2cn(-c3ccccc3)nc2-c2cccnc2)N1Cc1ccccc1 (stereo not given)", "experimental-result": "121% (inactive)"}
{"compound": "COc1ccc(/C=C2\\N=C(c3ccccc3)N(c3cc(OC)c(OC)cc3C(=O)N3N=C(C)CC3=O)C2=O)cc1", "experimental-result": "112% (inactive)"}
{"compound": "O=C(N/N=C\\c1c(O)ccc2ccccc12)C1CC1", "experimental-result": "96.3% (inactive)"}
{"compound": "CCNCCCn1c2c(c3ccc([N+](=O)[O-])cc3c1=O)C(=O)c1cc(OC)cnc1-2", "experimental-result": "-30.9% (active)"}
{"compound": "Cn1cc(-c2nc(-c3c[nH]c4ncccc34)cs2)c2cc(Cl)ccc21", "experimental-result": "80.2% (inactive)"}
{"compound": "O=C1C(Cl)=C(Nc2ccc(S(=O)(=O)c3ccc(NC4=C(Cl)C(=O)c5ccccc5C4=O)cc3)cc2)C(=O)c2ccccc21", "experimental-result": "-54.9% (active)"}
{"compound": "C[C@@H](C(=O)O)c1ccc2c3cc(Cl)ccc3n(Cc3cc(=O)oc4ccc(Cl)cc34)c2c1", "experimental-result": "113% (inactive)"}
{"compound": "Cc1cc(N2CCN(C)CC2)nc(N(CCNc2ccnc3cc(Cl)ccc23)Cc2ccco2)n1", "experimental-result": "-5.82% (active)"}
{"compound": "N#C/C(=C\\c1ccc(-c2ccc(Br)cc2)o1)c1nc(-c2ccco2)cs1", "experimental-result": "102% (inactive)"}
{"compound": "Cc1ccc(-c2ccc(/C=C(\\C#N)c3nc(-c4ccco4)cs3)o2)cc1", "experimental-result": "99.1% (inactive)"}
{"compound": "COc1cc2[nH]c(C(=O)c3cc(OC)c(OC)c(OC)c3)c(N)c2cc1C#CC1CC1", "experimental-result": "8.48% (active)"}
{"compound": "CSc1ccc(N(C)c2nc(C)nc3c2CCC3)cc1", "experimental-result": "-64.9% (active)"}
{"compound": "COCCNC1=C(Cl)C(=O)c2ccccc2C1=O", "experimental-result": "110% (inactive)"}
{"compound": "COc1cccc2c1C(=O)c1c(O)c3c(c(O)c1C2=O)C[C@@](O)(C(=O)CO)C[C@@H]3OC1C[C@H](N)[C@H](O)[C@H](C)O1 (stereo not given in full)", "experimental-result": "-81.6% (active)"}
{"compound": "Cn1cc(-c2nc(-c3c[nH]c4ncccc34)cs2)c2cc(Br)ccc21", "experimental-result": "106% (inactive)"}
